# System: HCV core protein (residues 1-106) dimerization
# protocol-details: blockers of core106 self-association – biochemical, TR-FRET, high-throughput, primary screen (AID 1899)
# condition-description: TR-FRET GST/Flag-core106 dimerization, 1536-well; at 5 µM; hits give high values
The campaign covered roughly 300,000 compounds. About 1,000 (0.33%) were called active. The list comes from a sample in which actives are over-represented; it also holds close analogues and randomly drawn compounds.
reported-property: inhibition (%)

>>> measurement("O=C(COc1ccc(/C=N/NC(=O)c2ccc(O)cc2)cc1)Nc1ccc([N+](=O)[O-])cc1")
55.5
>>> measurement("CC(=O)N1CCN(C(=O)c2cc(-c3ccc(C)o3)nc3ccccc23)CC1")
1.32
>>> measurement("O=C(CSc1nnc(-c2ccc([N+](=O)[O-])cc2)o1)Nc1ccccn1")
-13.9
>>> measurement("Cc1ccc(/C=C(\\C#N)C(=O)Nc2cccc3ncccc23)o1")
64.5
>>> measurement("O=C(NC1CCCCC1)C1CCCN(S(=O)(=O)c2ccc(Br)s2)C1 (centres undefined)")
3.6
>>> measurement("CC(C)c1ccc(N2CC(C(=O)Nc3nccs3)CC2=O)cc1 (centres undefined)")
3.92
>>> measurement("CN(C)C=NC(=O)c1cccn1-c1ncc(C(F)(F)F)cc1Cl")
-0.36
>>> measurement("O=C(Nc1ccncc1)c1cc(-c2ccccn2)nc2ccc(Br)cc12")
-6.91
>>> measurement("O=C(Nc1cccc2ncccc12)C(Cl)(Cl)Cl")
-1.9
